Origin of values: ChEMBL document CHEMBL4765322

IC50 reference
# assay-details: Inhibition of P-gp mediated multidrug resistance in human K562/4 cells assessed as sensitization of cells to doxorubicin by measuring reduction in cell viability preincubated with compound for 30 mins prior to 1 uM doxorubicin addition and measured after 72 hrs by MTT assay
# Format: cell-based

| smiles-notation | IC50 (nM) |
| --- | --- |
| CCOC(=O)c1ccc(-n2nc(/C=C/c3ccc(OC)c(OC)c3)cc2/C=C/c2ccc(OC)c(OC)c2)cc1F | 200 |
| CCOC(=O)c1ccc(-n2nc(/C=C/c3ccc(OC)c(OC)c3)cc2/C=C/c2ccc(OC)c(OC)c2)cc1 | 800 |
| CCNS(=O)(=O)c1ccc(-n2nc(/C=C/c3ccc(OC)c(OC)c3)cc2/C=C/c2ccc(OC)c(OC)c2)cc1 | 500 |
| CCNC(=S)c1ccc(-n2nc(/C=C/c3ccc(OC)c(OC)c3)cc2/C=C/c2ccc(OC)c(OC)c2)cc1 | 500 |
